# PROTOCOL_NOTES: yeast display, Sf9 membrane polyspecificity reagent, FACS + sequencing; frameworks hold sequencing errors
VALUE_KIND: polyreactivity (PSR sort gate)

| SEQUENCE_CODE | VALUE_KIND | RESULT |
| --- | --- | --- |
| QVQLVESGGGLVQAGGSLRLSCAASGSISSKNAMGWYRQAPGKEREFVAVISGTGGSTYYADSVKGRFTISRDNAKNTVYLQMNSLKPEDTAVYYCAAAASSIVSYGYTWTYGYWGQGTQVTVSS | polyreactivity (PSR sort gate) | low polyreactivity |
| QVQLVESGGGLVQAGGSLRLSCAASGRIFHYYAMGWYRQAPGKERELVAAISWSGGSTYYADSVKGRFTISRDNAKNTVYLQMNSLKPEVTAVYYCNRQFGRRVYISHPGPGYWGQGTQVTVSS | polyreactivity (PSR sort gate) | high polyreactivity |
| QVQLVESGGGLVQAGGRLRLSCAASGRIFKRYAMGWYRQAPGKESELVAAISWRGGSTYYADSVKGRFTISRDNAKNTVYFQMNSLKPEDTAVYYCAAGYFSYRRYDYWGQGTQVTVSS | polyreactivity (PSR sort gate) | high polyreactivity |
| QVQLVESGGGLVQAGGSLRLSCAASGRIFSLNAMGWYRQAPGKERELVAAISKRGGSTYYADSVKGRFTISRDNAKNTVYLQMNSLKPEDTAVYYCNKLGSLSGRYDYWGQGTQVTVSS | polyreactivity (PSR sort gate) | high polyreactivity |
| QVQLVESGGGLVQAGGSLRLSCAASGRTIVWYAMGWYRQAPGKERELVAAISKRGGSTYYADSVKGRFTISRDNAKNTVYLQMNSLKPEDTAVYYCAAEVYYGSSYGYWGQGTQVTVSS | polyreactivity (PSR sort gate) | high polyreactivity |
| QVQLVESGGGLVQAGGSLRLSCAASGRTFAWYAMAWYRQAPGKERELVATITSRGGSTYYADSVKGRFTISRDNAKNTVYLQMNSLKPEYTAVYYCAAQSFWRPHQYDYWGQGTQVTVSS | polyreactivity (PSR sort gate) | low polyreactivity |
| QVQHVESVVGLVQAGGSLRLSCAASGSTFGPNAMGWSRQAPGKERELVAAITSGGRTYYADSVKGRFTISRDNAKNTVYLQMNSLKPEDTAVYYCAARVSVGVPRYEYWGQGTQVTVSS | polyreactivity (PSR sort gate) | high polyreactivity |
| QVQLVESGGGLVQAGGSLRLSCAASGRTFYIYAMGWYRQAPGKERELVAAITYGGGRTFYADSVKGRFTISRDNAKNTVYLQMNSLKPEDTAVYYCAASVRGKRSTYDYWGQGTQVTVSS | polyreactivity (PSR sort gate) | high polyreactivity |
| QVQLVESGGGLVQAGGSLRLSCAASGFIFVYYARGWYRQAPGKEMELVAAISRGGSTYYADSVKGRFTISRDNAKNTVYLQMNSLKPEDTAFYYCNKVLPYGREYGYWGQGTQVTVSS | polyreactivity (PSR sort gate) | high polyreactivity |
| QVQLVESGGGLFQAGRSLRIRCAASGRILNVYHMGWYRQAPGKERELVAAISSGANTNYAESVKGRFTISRDNAKNTVDLQMNSLKPEDTEVYFCNTEQFYDYDYTFDYWGQGTQVTVSS | polyreactivity (PSR sort gate) | low polyreactivity |
| QVQLVESGGGLVQAGGSLRLSCAASGRIFQTYAMGWYRQAPGKERELVAAISSRGRTYYADSVKGRFTISRDNAKNTVYLQMNSLKPGDTAVYYCAARDWSHRPRGYDYWGQGTKVTVSS | polyreactivity (PSR sort gate) | high polyreactivity |
| QVQLVESGGGLVQAGGSLRLSCAASGSIFYLYAMGWYRQAPGKERELVAAITSIGGSTYADSVKGRFTISRDNAKNTVYLQMNSLKPEDTAVYYCNADGLYEKWGPWTVPYYYWGQGTQVTVSS | polyreactivity (PSR sort gate) | low polyreactivity |
| QVQLVESGGGLVQAGGILRLSCAASGNAMGWYRQAPGKERELVATINRSGGRTYYADSVKGRFTISRDNAKNTVYLQMNSLKPEDTAVYYCATEGRWPNASYGDYDYWGQGTQVSVSS | polyreactivity (PSR sort gate) | low polyreactivity |
| QVQLVESGGGLVQAGGSHRLSCAASGFTFGRYPMGWYRQAPGKERELVAAISSSGSSTYYSDSVKGRFTISRDNAKNTVYLQMNSLKQEDTAVYYCAAAIYVSDRHTYNYWGQGSQVTVSS | polyreactivity (PSR sort gate) | high polyreactivity |
| QVQRVESGGGLVQAGGSLRLRCAASGFTLGHYAMGWYRQAPGTERELVAVITSGSSTNYADSVKGRFTISRDNAKNTVYLQMNSLKPEDTAVIYCAAEHPYFIWLYYYWGQGTQVTVSS | polyreactivity (PSR sort gate) | low polyreactivity |
| QVQLVESGGGLVQAGGSLRLSCAASGSTFELNAMGWYRQAPGKERELVAVITISGGNTYYADSVKGRFTISRDNAKNTVDLPMNSLKPDDTAVYYCAARPITTSITRYGFWGQGTQVTVSS | polyreactivity (PSR sort gate) | high polyreactivity |
| QVQHVESGGGLVQAGRSLRLSCAASGILRRYAMGWYIQERGKERELVAAITRTGGRTYYADSVKGRFTISRDNAKNTVYLQMNSLKPEDTAVYYCATDRYVVSGMDYWGQGTQVTVSS | polyreactivity (PSR sort gate) | high polyreactivity |
| QVQLQESGGGLVQAGGSLPLSCAASGTISVHATMGWYRQATGKERELVAGITDGANTYYADSVKGRFTISRDNSQNTVYLQMNSLTPEDTAVYYCAAYYGTVVHFTYWGQGTQVTVSS | polyreactivity (PSR sort gate) | low polyreactivity |
| QVQLVESGGGLVQAGGSLRLSCAASGRTFGYYAMGWYRQAPGKVRELVASISSSGGNTYYADSVKGRFTISRDNAKNNVYLQMNSLKPEDTAVYYCAATYGWWPRDYYYWGQGTQVTVSS | polyreactivity (PSR sort gate) | high polyreactivity |
| QVQLVESGGALVQAGGSLRLTCAASGRTLYLYAMGWYRQAPGKEREFVAAINSSGDSTYYADSVKGRFTISRDNAKNTVYLQMNSLNPEDTAVYYCNVAWFRHEYDYWGQGTQVTVSS | polyreactivity (PSR sort gate) | low polyreactivity |
| QVQLVESGGGLVQAGGSLRLSCAASGSIFLKYAMCLYRQAPGKERELVAAMSFSGGGTYYADSVKGRFTISRDNAKNTVYLQMNSLKPEDTAVYYCAADKIVYVRSNWYWGFDYWGQGTQVTVSS | polyreactivity (PSR sort gate) | low polyreactivity |

====

# PROTOCOL_NOTES: yeast display, Sf9 membrane polyspecificity reagent, FACS + sequencing; frameworks hold sequencing errors
VALUE_KIND: polyreactivity (PSR sort gate)

| SEQUENCE_CODE | VALUE_KIND | RESULT |
| --- | --- | --- |
| QVQLVESGGGLVQAGGSLRLSCAASGRIFGRNTMGWYRQAPGKERELVAAITGTGTTYADSVKGRFTISRDNAKNTVYLQMNSLKPEDTAVYYCAARRSVYTWVSRYNYWGQGTQVTVSS | polyreactivity (PSR sort gate) | high polyreactivity |
| QVQLVESAGGLVQAGGSLRLSCASSGSTLPYNAMGWYRQAPGKESELVAAISKSGGRTYYADSVKGRFTISRDNAKNSVYLQMNSLKPEDTAVYYCNAGPYLGGGGSSRYLWGQGTQVTVSS | polyreactivity (PSR sort gate) | high polyreactivity |
| QVQLEESGGGLVKARGSLRITCAASGSTFDYYTMGWYRQAPGKERELFAAINSSGGRTYYADSVKGRFTISRDTAKNTVYLQMNSLIPEDTAVYDCAAVTLCLGRYPYTYTSRYEYWGLGTQVTVSS | polyreactivity (PSR sort gate) | high polyreactivity |
| QVQLVESGGGLVQAGGSLRLSCAASGSIFSRNDMGWYRQAPGKERELVAAITSDDTSTYYADSVNGRFTISRDNAKNTVYLQMNSLKPEDTAVYYCAADYGNPFDYWGQGTQVTVSS | polyreactivity (PSR sort gate) | low polyreactivity |
| QVQLVESGGGLVQAGGSLRLSCAASGIIFAYYAMGWYRQAPGKERELVAAIDYSGASTYYADSVKGRFTISRDNAKNTVYLQMNSLKPEDTAVYYCAKYQYDYYTYDYWGQGTQVTVSS | polyreactivity (PSR sort gate) | low polyreactivity |

====

# PROTOCOL_NOTES: yeast display, Sf9 membrane polyspecificity reagent, FACS + sequencing; frameworks hold sequencing errors
VALUE_KIND: polyreactivity (PSR sort gate)

| SEQUENCE_CODE | RESULT |
| --- | --- |
| QVQLVESGGGLVQAGGSLRLSCAASGFIFLQNAMGWYRQAPGKERELVAVIRLSSCSTYYADSVKGRFTISRDNAKNTVYFEMNSLKPEDTAVYYCAARGYYSGQTTIGMDYWGQGTQVTVSS | low polyreactivity |
| QVQLVESGGGLVQAGGSLRLSCAASGSIFRKYAMGWYRQAPGKERELVAVITTDGSTNYADSVKGLFTISRDNAKNTVYLQMNSLKPEDTAVYYCNAVRSSIGTDNDYWGQGTQVTVSS | low polyreactivity |
| QVQLVESGGGLVQAGGSLRLSCADSGSIFVAYAMRWYRPAPGKERELVAAISSSGGTTYYADSVKGRFTISRDNAKNTVYLQMNSLKPEDTAVYYSAARDYKYYYWGQGTQVTVSS | high polyreactivity |
| QVQIVESGRGLVQAGGSLRVSCAASGRTFTYNAMGWYRQAPGKERELVAAINGDGGSTYYADSVKVRFTISRDNAKNTVYLQMNSLKPEDTAVYYCNRPRIYRYGYWGQGTQVTVSS | high polyreactivity |
| QVQLVESGGGLVQAGGSLRLSCAASGSIFRRYATGWYRQAPGKERQLVAAISSGGSTYADSVKGRFTISRDNAKNTVYLQMNSLKPEDTAVYYCNASGRWYYGRRYDYWGHGTQVTVSS | low polyreactivity |
| QVQLVESGGGLVQAGGSLRLSCAASGIIFAPYAMGWYRHPPGKERELVAAITDSGGSTYYADSVKGRFTISRDNSKNTVYLQMKSLKPEDTAVYYCAVDSNPPDWWAVIYGYWGQGTQVTVSS | low polyreactivity |
| QVQLVESGGGLVQAGGSLRVSCAASGRIFRYTSGWYRQAPAKERELVATINSCGRTYYADSVKGRFTISRDNAKNTVYLQRNCLKPEDTAVYFCAAPYQTKCNKYVHGSPIENDYWGQGTQVTVSS | low polyreactivity |
| QVQLVESGGGLDQAGGSLRLSCAASGRTFAHNAMGWYRQAPGKERELVAAITWSGGTTYYADSVKGRFTISRDNAKNTVYLQMNSLKPEDTAVYYCNTYSYLADPKYDYWGQGTQVTVSS | low polyreactivity |
| QVQLVESGGGLVQAGGSLRLSCAASGRTFYFNTMGWDRPAPGKERELVAAIDERGDSTYYADSVKGRFTISRDNAKNTVYLQMNSLKPEDTAVYYCATDWTLEVYYGRYIAKYEYGSWGQGTQVTVSS | low polyreactivity |
| QVQLVESGGGLVQAGGSLRLSCAASGLIFYDNMGWYRPAPGKERELVAAISSSGGSTSYADSVKGRFTISRDNAKNTVYLQMNSLKPEDTAVYYCAARLVYEWRRLDYFIAWDYWGQGTQVTVSS | low polyreactivity |
| QVQLVESGGGLVQAAGSLRLSSAASGYTFYINAMGSYRQAPGKERELVATIRRRGGSTYYADSVKGRFTISRDNAKNTVYLQMNSLKPEDTAVYYCNADTLGGKYVYQYRRGFDYWGHGTQVTVSS | high polyreactivity |
